Reference source for all entries: the NIST ThermoML archive (doi:10.1016/j.fluid.2012.11.013)

# CONDITIONS: 303.15 K; 10000 kPa; Liquid; Vibrating tube method
ENDPOINT LABEL: mass density (kg/m3)

Query :: Identify measured mass density associated with CCC(C)CC [3-methylpentane]
Result :: 666

Query :: Indicate its recorded mass density; the compound in question is CCCC(C)C [2-methylpentane]
Result :: 655.36

Query :: // fetch mass density given entry CC(C)C(C)C [2,3-dimethylbutane]
Result :: 663.63

Query :: Dear colleague, please send me the reported mass density for CCC(C)(C)C [2,2-dimethylbutane] when you can.
Result :: 652.04

====

# CONDITIONS: 288.15 K; 65000 kPa; Liquid; Vibrating tube method
ENDPOINT LABEL: mass density (kg/m3)

Query :: Supply measured mass density of CCCC(C)C in your reply.
Result :: 708.71

Query :: Give reported mass density value for CCC(C)(C)C
Result :: 707.61

Query :: Name the recorded mass density of the compound listed here: CCC(C)CC
Result :: 718.14

Query :: Input CC(C)C(C)C , output reported mass density.
Result :: 716.77
